Data provenance is patent US7094869B2.

Target: rat pituitary cells (Rattus norvegicus)
Sequence (O08725 whole entry): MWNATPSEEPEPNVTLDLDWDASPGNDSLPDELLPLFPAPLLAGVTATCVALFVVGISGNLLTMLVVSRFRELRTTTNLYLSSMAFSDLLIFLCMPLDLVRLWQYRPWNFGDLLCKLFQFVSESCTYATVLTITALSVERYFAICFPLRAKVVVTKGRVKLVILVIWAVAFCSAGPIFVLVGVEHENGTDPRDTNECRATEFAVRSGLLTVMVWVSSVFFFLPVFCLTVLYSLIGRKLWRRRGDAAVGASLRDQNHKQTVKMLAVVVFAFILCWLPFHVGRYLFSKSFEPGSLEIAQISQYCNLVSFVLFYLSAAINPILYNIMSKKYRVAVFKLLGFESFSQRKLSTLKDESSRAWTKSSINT
Conditions: read-out: PIT Cell EC50; Table IV, formula III compounds; GH release, 15 min incubation
Non-standard residues stand in square brackets, D forms with d. Residues, ends and D or L forms follow the SMILES beside them. dNMe2Nal = CN[C@H](Cc1ccc2ccccc2c1)C(=O)O; d2Nal = N[C@H](Cc1ccc2ccccc2c1)C(=O)O; Phe(ol) = N[C@H](CO)Cc1ccccc1; Nle = CCCC[C@H](N)C(=O)O; Inp = O=C(O)C1CCNCC1
Outcome measure: EC50 (nM)

INSERT INTO assay_data (molecule, units_text, data_value) VALUES
  ('COC(=O)[C@H](Cc1ccccc1)NC(=O)[C@@H](Cc1ccc2ccccc2c1)NC(=O)[C@@H](Cc1ccc2ccccc2c1)N(C)C(=O)C1CCNCC1 [(inip) nmb b F Me ester] (H-[Inp][dNMe2Nal][d2Nal]F-OMe)', 'nM', 1.4),
  ('O=C(N[C@H](Cc1ccc2ccccc2c1)C(=O)N[C@H](Cc1ccc2ccccc2c1)C(=O)N[C@H](CO)Cc1ccccc1)C1CCNCC1 [(inip) b b Pol, (inip)-DβNal-DβNal-(L-Phenylalanol)] (H-[Inp][d2Nal][d2Nal][Phe(ol)])', 'nM', 0.2),
  ('CCCC[C@H](NC(=O)[C@@H](Cc1ccc2ccccc2c1)NC(=O)[C@@H](Cc1ccc2ccccc2c1)NC(=O)C1CCNCC1)C(N)=O [(inip) b b nL amide] (H-[Inp][d2Nal][d2Nal][Nle]-NH2)', 'nM', 4.3),
  ('NCCCCNC(=O)[C@@H](Cc1ccc2ccccc2c1)NC(=O)[C@@H](Cc1ccc2ccccc2c1)NC(=O)C1CCNCC1', 'nM', 18.5);
